- MEASURED TARGET: GSK-3beta (Homo sapiens, UniProt P49841)
- Sequence (P49841 whole entry, species assumed): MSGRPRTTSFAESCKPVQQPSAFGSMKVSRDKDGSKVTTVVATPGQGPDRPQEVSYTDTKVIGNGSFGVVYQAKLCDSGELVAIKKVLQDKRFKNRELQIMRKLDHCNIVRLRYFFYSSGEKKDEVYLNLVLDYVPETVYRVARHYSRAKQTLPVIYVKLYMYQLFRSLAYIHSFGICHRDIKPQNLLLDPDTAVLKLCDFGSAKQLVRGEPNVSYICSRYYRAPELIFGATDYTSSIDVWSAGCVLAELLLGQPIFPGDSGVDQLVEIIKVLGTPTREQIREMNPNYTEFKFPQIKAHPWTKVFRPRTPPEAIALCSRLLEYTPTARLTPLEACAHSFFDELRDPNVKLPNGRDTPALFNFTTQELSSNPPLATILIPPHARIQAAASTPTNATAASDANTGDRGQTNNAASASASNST
- TEST METHOD NOTES: GSK-3beta kinase assay
- Assay type: biochemical
- CONDITION SET: 10 μM compound; read-out: GSK-3beta percent of inhibition
- Description: General description of the kinase assays: the kinase activity was assayed in 96-well microtiter plates at a final compound concentration of 10 μM in a total volume of 50 μl. Compounds were dissolved in 100% DMSO to prepare a 10 mM stock solution and than diluted with buffer to reach a 10 μM (or the required) final concentration. The kinase concentration was used to yield 10% ATP turn over. […] The radioactivity was counted on a Microbeta microplate counter.

# INPUT SMILES, inhibition at 10 µM
data = [
    ("Fc1cccc(Nc2ncnc3sc4ccccc4c23)c1", "3%"),
    ("Brc1cccc(Nc2ncnc3sc4c(c23)CCCC4)c1", "-10%"),
    ("N#Cc1cccc(Nc2nc(C3CC3)nc3sc4c(c23)CCCC4)c1", "2%"),
    ("Nc1cccc(Nc2nc(C3CC3)nc3sc4c(c23)CCCC4)c1", "0%"),
    ("COc1cccc(Nc2nc(C3CC3)nc3sc4c(c23)CCCC4)c1", "-6%"),
    ("Brc1cccc(Nc2nc(C3CC3)nc3sc4ccccc4c23)c1", "0%"),
    ("Fc1ccccc1Nc1ncnc2sc3c(c12)CCCC3", "7%"),
    ("Clc1cccc(Nc2nc(C3CC3)nc3sc4ccccc4c23)c1", "3%"),
    ("Brc1cccc(Nc2ncnc3sc4ccccc4c23)c1", "-3%"),
    ("Nc1cccc(Nc2ncnc3sc4c(c23)CCCC4)c1", "-2%"),
    ("Fc1cccc(Nc2ncnc3sc4c(c23)CCCC4)c1", "3%"),
    ("COc1cccc(Nc2nc(C3CC3)nc3sc4ccccc4c23)c1", "0%"),
    ("N#Cc1cccc(Nc2ncnc3sc4c(c23)CCCC4)c1", "-6%"),
    ("Fc1cccc(Nc2nc(C3CC3)nc3sc4ccccc4c23)c1", "1%"),
    ("FC(F)(F)c1cccc(Nc2nc(C3CC3)nc3sc4c(c23)CCCC4)c1", "-3%"),
    ("Oc1cccc(Nc2nc(C3CC3)nc3sc4ccccc4c23)c1", "7%"),
    ("Fc1ccc(Nc2ncnc3sc4c(c23)CCCC4)cc1", "-1%"),
    ("Clc1ccc(Nc2ncnc3sc4c(c23)CCCC4)cc1", "2%"),
    ("Nc1ccc(Nc2ncnc3sc4c(c23)CCCC4)cc1", "8%"),
    ("Clc1cccc(Nc2nc(C3CC3)nc3sc4c(c23)CCCC4)c1", "-6%"),
]
